This collection of values is drawn from PubChem BioAssay (NCI).

tested on: SF-268 CNS; assay: NCI-60 one-dose screen, 48 h (100 = growth as untreated, 0 = no growth, -100 = all killed); settings: 10 µM unless noted
The panel holds about 83,000 compounds, 20% with a hit somewhere; the sample as a whole holds those more often.
Binary classification by growth, with 80% as an inclusive lower bound for 1 (yes); all other cases are 0 (no).

| Molecule | System name | Answer label |
| --- | --- | --- |
| COc1cc(/C=C/C(=O)N2CCN(C(=O)c3cc(OC)c(OC)c(OC)c3)CC2)ccc1OCCCOc1cc2c(cc1OC)C(=O)N1CCC[C@H]1C=N2 | SF-268 CNS | 0 (no) |
| CNC(=O)c1cc(Oc2ccc3c(c2)sc2nc(-c4cc(C(F)(F)F)cc(C(F)(F)F)c4)cn23)ccn1 | SF-268 CNS | 0 (no) |
| O=C(/C=C/c1ccco1)Nc1ncc(Cc2cc(Cl)ccc2Cl)s1 | SF-268 CNS | 0 (no) |
| O=C1c2cccnc2C(=O)c2c1c(C(=O)OCCc1ccccn1)c1ccccn21 | SF-268 CNS | 0 (no) |
| CCOC(=O)c1c(NC(=O)c2ccccc2)sc2c3c(ccc12)OCN(C)C3 | SF-268 CNS | 0 (no) |
| COc1cc(/C=C/C(=O)c2cccc(-n3cc(-c4ccc(Cl)cc4)[nH]c3=O)c2)ccc1O | SF-268 CNS | 0 (no) |
| COc1ccc(OC)c(Nc2nnc(-c3cc(OC)c(OC)c(OC)c3)o2)c1 | SF-268 CNS | 1 (yes) |
| COC(=O)[C@@]12CC=C(C)[C@]3(C[C@H](c4ccoc4)OC3=O)[C@H]1C=C[C@@H](O)[C@@]2(O)C(=O)OC | SF-268 CNS | 1 (yes) |
| CC(=O)N1N=C(c2ccc(Nc3nc(Nc4ccc(F)cc4)nc(Nc4ccc(F)cc4)n3)cc2)CC1c1ccc(N(C)C)cc1 (centres undefined) | SF-268 CNS | 0 (no) |
| COc1ccc(C2CC(n3ccnc3)c3cc(OC)c(OC)c(OC)c32)cc1O (centres undefined) | SF-268 CNS | 1 (yes) |
| COc1cc2c(c(OC)c1OC)C(=O)CC(c1cccc(C(=O)Nc3ccccc3Br)c1)O2 (centres undefined) | SF-268 CNS | 0 (no) |
| O=C(CCCCCCCC(=O)N1CCCCC1)N1CCCCC1 | SF-268 CNS | 1 (yes) |
| CN(C)CCCC1(c2ccc(F)cc2)OCc2cc(-c3csc4ccccc34)ccc21 (centres undefined) | SF-268 CNS | 0 (no) |
| O=C(O)CCCCCCCCCCN1C(=O)/C(=C2/C(=O)N(CC(=O)O)c3ccc(Br)cc32)SC1=S | SF-268 CNS | 1 (yes) |
| CCN1C(=O)N(c2ccccc2)C2NC(=S)N(/N=C/C=C/c3ccccc3OC)C21 (centres undefined) | SF-268 CNS | 0 (no) |
| CCn1cc(C(=O)N/N=C/c2cccc(F)c2)c(=O)c2cc(F)c(N3CCNC(C)C3)c(F)c21 (centres undefined) | SF-268 CNS | 0 (no) |
| COc1cc(C=Nc2oc(-c3ccccc3)c(-c3ccccc3)c2C#N)cc(CN2CCCC2)c1O | SF-268 CNS | 1 (yes) |
| C#Cc1cccc(Nc2ncnc3cc(NC(=O)CCl)ccc23)c1 | SF-268 CNS | 0 (no) |
| CS(=O)(=O)Nc1cc(-c2ccc3ncnc(Nc4ccc5c(cnn5Cc5ccncc5)c4)c3c2)cnc1Cl | SF-268 CNS | 0 (no) |
| C(=C(\C1=NCCN1)n1ccc2ccccc21)/c1ccccc1 | SF-268 CNS | 1 (yes) |
| O=C(O)CC(C(=O)O)/C(=C\c1ccccc1)c1ccccc1 (centres undefined) | SF-268 CNS | 1 (yes) |
| Fc1ccc2[nH]cc(-c3nc(-c4c[nH]c5c(Cl)nccc45)cs3)c2c1 | SF-268 CNS | 0 (no) |
| COC(=O)c1ccc2cc(OC)c(OC)cc2c1 | SF-268 CNS | 1 (yes) |
| C#CCOc1cccc(Nc2ncnc3c2ncn3C2CCN(C(=O)CCl)C2)c1 (centres undefined) | SF-268 CNS | 0 (no) |
| CCOC(=O)c1cnn(CC(C)O)c1NC(=O)NCc1ccccc1C(F)(F)F (centres undefined) | SF-268 CNS | 1 (yes) |
| COCCOC(C)C(/C=N/NC(N)=S)=N/NC(N)=S (centres undefined) | SF-268 CNS | 1 (yes) |
| C=C(C)[C@@H]1CC[C@]2(C)[C@H](C=CC3=C4C[C@@](C)(CO)CC[C@]4(C)CC[C@]32C)[C@@]1(C)CCCN | SF-268 CNS | 0 (no) |
| CS(=O)(=O)Nc1cc(-c2ccc3ncnc(Nc4ccc5c(cnn5Cc5ccccc5F)c4)c3c2)cnc1Cl | SF-268 CNS | 0 (no) |
| COc1cc2c(c(OC)c1OC)CCC(c1cccc(C(=O)Nc3ccc(Br)cc3)c1)O2 (centres undefined) | SF-268 CNS | 0 (no) |
| Nc1ncnc2c1N=C(c1ccc(F)cc1)CC(c1cccc(Nc3ccnc4cc(Cl)ccc34)c1)N2 (centres undefined) | SF-268 CNS | 0 (no) |
| O=C(O)c1cn(C2CC2)c2cc(N3CCN(C(=O)N/N=C/c4cccc5ccccc45)CC3)c(F)cc2c1=O | SF-268 CNS | 1 (yes) |
| Cc1sc2nc(NCCN)[nH]c(=O)c2c1C | SF-268 CNS | 1 (yes) |
| O=C(CSc1nnnn1-c1ccccc1)Nc1ccc(Oc2ccccc2)cc1 | SF-268 CNS | 1 (yes) |
| CSc1ccc2c3c(n(C[C@H](O)CO)c(=O)c2c1)-c1ccccc1C3=O | SF-268 CNS | 0 (no) |
| Nc1cccc(-c2ccc(COc3ccc(CC4SC(=O)NC4=O)cc3)cc2)c1 (centres undefined) | SF-268 CNS | 0 (no) |
| COc1ccc(CN2C(=O)OC(C)(COC(C)=O)C2=O)cc1 (centres undefined) | SF-268 CNS | 1 (yes) |
| Oc1ccc(-c2nc3ccc4[nH]ncc4c3c3c2CCCC3)c(F)c1 | SF-268 CNS | 0 (no) |
